// data source = PubChem BioAssay AID1259407

Tested on: CCRIS mutagenicity, Ames/micronucleus/aberration tests
Assay Info: CCRIS mutagenicity studies
Measurement Setup: Test System: AMES SALMONELLA TYPHIMURIUM; Strain/Indicator: TA92; Metabolic Activation: RAT, LIVER, S-9, AROCLOR 1254; Method: SPOT TEST
Activity calls are given as the source filed them. How the calls were made is not given here.
The reply should name one outcome from active, inactive

// outcome(item) with item = C=CC(C)(C)c1cc2cc3c(cc2oc1=O)OC(C(C)(C)O)C3 (centres undefined)
inactive

Continue with CC(C)(O)[C@H]1Cc2cc3ccc(=O)oc3cc2O1
active

Okay, and CC(C)=CCOc1c2occc2cc2ccc(=O)oc12 ?
active

Then what about the compound CC1(C)O[C@H]1COc1c2ccoc2cc2oc(=O)ccc12 ?
inactive

###

Tested on: CCRIS mutagenicity, Ames/micronucleus/aberration tests
Assay Info: CCRIS mutagenicity studies
Measurement Setup: Test System: AMES SALMONELLA TYPHIMURIUM; Strain/Indicator: TA98; Metabolic Activation: NONE; Method: PREINCUBATION
Activity calls are given as the source filed them. No rule for the calls is given here.
Just give me one of these, please: true (1) for active, false (0) for inactive

Outcome logged for CCCCCCCCCCCCCCCCCCN in this assay:
false (0)

Subsequent entry: C[C@H](CCC(=O)O)[C@H]1CC[C@H]2[C@@H]3CC[C@@H]4C[C@H](O)CC[C@]4(C)[C@H]3CC[C@]12C
false (0)

Next compound: c1ccc2c(c1)-c1ccc3ccccc3c1C1OC21 (stereo unspecified)
true (1)

Follow-up item: CC(=O)ON(C(C)=O)c1ccc(-c2ccccc2)cc1
true (1)

Here is the next compound: Oc1ccc2ccc3cc4ccccc4c4ccc1c2c34
false (0)

Input COC1=CC(=O)C[C@@H](C)[C@]12Oc1c(Cl)c(OC)cc(OC)c1C2=O
false (0)

Another compound: ClC(Cl)(Cl)c1ccccc1
false (0)

Another compound to check: NC(=O)c1cnccn1
false (0)

Follow-up item: Nc1nc(N)nc(-c2ccccc2)n1
false (0)

Check CC1CC(OC(=O)c2ccccc2O)CC(C)(C)C1 (stereo unspecified) too.
false (0)

Try this compound next: N[C@@H](CSCc1ccccc1)C(=O)O
false (0)

Another compound to look at: Cc1ccc([N+](=O)[O-])c(C)c1
false (0)

Moving on to CCCCCC[C@@H](O)C/C=C\CCCCCCCC(=O)O
false (0)

Another: COc1ccc(OC)cc1
false (0)

Now consider Nc1cccc(N)c1C(=O)O .
false (0)

// same read-out, input: Nc1ccc(N)c2c1C(=O)c1c(N)ccc(N)c1C2=O
true (1)

// next record CCCCCC(N)=O
false (0)

Now the compound CCOC(C)=O
false (0)

Entry Clc1cc2c(cc1Cl)Oc1cc(Cl)c(Cl)cc1O2 please
false (0)

Let us now turn to CCOc1cccc(N)c1
false (0)

Again, but for Oc1c2c(c3c(ccc4c3ccc3ccc5ccccc5c34)c1O)O2
true (1)

Record: O=[N+]([O-])c1ccc(Nc2ncnc3nc[nH]c23)cc1
false (0)

Another compound to check: CN(CCO)CCO
false (0)

Try the compound CN(C(=O)CN(CCO)CC(=O)N(C)C(C)(C)Cc1ccccc1)C(C)(C)Cc1ccccc1
false (0)

Consider next the compound CCOP(=S)(OCC)Oc1ccc([N+](=O)[O-])cc1 in the same way.
false (0)

Another compound to check: C=C(C)[C@@]12OC3(c4ccccc4)O[C@@H]1[C@@H]1[C@@H]4OC4(CO)[C@@H](O)[C@]4(O)C(=O)C(C)=C[C@H]4[C@@]1(O3)[C@H](C)[C@H]2OC(=O)/C=C/C=C/c1ccccc1 (stereo partly specified)
false (0)

###

Tested on: CCRIS mutagenicity, Ames/micronucleus/aberration tests
Assay Info: CCRIS mutagenicity studies
Measurement Setup: Test System: AMES SALMONELLA TYPHIMURIUM; Strain/Indicator: TA1535; Metabolic Activation: NONE; Method: PREINCUBATION
Active and inactive are the calls of the source. How the calls were made is not given here.
Outcome field: choose from Yes (active), No (inactive)

Please indicate how the test categorized O=[N+]([O-])c1cccc2c([N+](=O)[O-])cccc12 .
No

Another compound: CCOP(=S)(OCC)Oc1nc(Cl)c(Cl)cc1Cl
No

Param item: c1ccc2cc3ccccc3cc2c1
No

Can you handle CCCCCC[C@@H](O)C/C=C\CCCCCCCC(=O)O next?
No

Do the same for O=C1C=C(S(=O)(=O)O)c2ccccc2C1=O please
No

Same for Nc1ccccc1C(=O)O
No

Here is the next compound: CC(=O)OCc1ccc2c(c1)OCO2
No

Proceed to [CH3][Hg+]
No

How about CC(C)(C#N)N=NC(C)(C)C#N ?
No

Note, next up: CNc1ccc(O)cc1
No

Continue with CCCCCCCCCC
No

Also check CN(C)c1ncnc2nc[nH]c12
Yes

Also need CCOCn1cc(F)c(=O)n(C(=O)c2cccc(C(=O)Oc3nc(OC(=O)c4ccccc4)ccc3C#N)c2)c1=O , thanks.
No

Do the same for O=[N+]([O-])c1ccccc1CCl please
No

Would you mind doing Oc1c(Cl)c(Cl)cc(Cl)c1Cl as well?
No

// query: CC(C)(C)OOC(C)(C)C
No

Try this compound too: CCCCCCC(C)COC(=O)c1ccccc1C(=O)OCC(C)CCCCCC (stereo not given)
No

Lookup COP(=O)(OC)C(O)C(Cl)(Cl)Cl (stereo not given)
No

What do you get for CC(=O)Nc1ccc(C)cc1 ?
No

One more compound: N#CCCO
No

Now the compound CCCCOCCOC(=O)COc1ccc(Cl)cc1Cl
No

Param item: CCCCCCCC/C=C\CCCCCCCC(=O)O
No

Lookup O=NN1CCOC(O)C1 (stereo not given)
Yes

C1COCCN1 , same question.
No

# iterate: CCN(CC)c1ccc(N=O)c(O)c1
No

Follow-up item: N.N.O=C([O-])C1(C(=O)[O-])CCC1.[Pt+4]
No

Entry to check: COC(=O)C1=C(C)NC(C)=C(C(=O)OCC(C)=O)C1c1ccccc1[N+](=O)[O-] (stereo not given)
No

Let us now turn to CC(Br)CBr (stereo not given)
No

Param item: O=c1[nH]c(=O)n([C@H]2C[C@H](O)[C@@H](CO)O2)cc1CCCl
No

Likewise for CN(C(=O)CN(CCO)CC(=O)N(C)C(C)(C)Cc1ccccc1)C(C)(C)Cc1ccccc1 ?
No

Same question for CCCCCCCCCC(=O)O please.
No

Now the compound C=CC1CC2C=CC1C2 (stereo not given)
No

// repeat for C=C(C)[C@H]1CC=C(C)CC1 and report
No

Can you handle CC(C)O next?
No

Same for CC(=O)NNC(=O)c1ccccn1
No

Another: NC(=O)c1cnccn1
No

Also O=C1c2ccccc2C(=O)c2c(O)ccc(O)c21 ?
No

Another compound to check: CCC/C=C(/C=O)CC
No

Can you check C[C@]1(Cn2ccnn2)[C@H](C(=O)O)N2C(=O)C[C@H]2S1(=O)=O next?
No

Same question, Cl/C=C/Cl this time
No

Input C=C(C)C1CC=C(C)C(O)C1 (stereo not given)
No

Next compound: CN1CCC(CN2c3ccccc3Sc3ccccc32)C1 (stereo not given)
No

Consider next the compound CCCCCCCCCCCCCCCCCCN in the same way.
No

Next record, please: CCCBr
No

Input Nc1c2ccccc2nc2ccccc12
No

Continue with C/C=C/C=O
No

Then this compound: O=[N+]([O-])O
No

What would you report for COC(=O)C1=C(C)NC(C)=C(C(=O)OC)C1c1ccccc1[N+](=O)[O-] ?
No

Also CCC1NC(=O)c2cc(S(N)(=O)=O)c(Cl)cc2N1 (stereo not given) , if possible.
No

Now this one: O=C(O)c1ccc(S(=O)(=O)N(Cl)Cl)cc1
No

// next record Nc1ccc(N)c2c1C(=O)c1c(N)ccc(N)c1C2=O
No

Try this compound next: NS(=O)(=O)c1cc2c(cc1Cl)NCNS2(=O)=O
No

And Nc1ccc(Br)cc1 ?
No

# repeat for CCCCNC(=O)n1c(NC(=O)OC)nc2ccccc21
No

Another compound to look at: C=CC#N
No

Also CCN(CC)CCCN(c1ccccc1)C1Cc2ccccc2C1 , if possible.
No

Try CCCCCCCCCCCOC(=O)c1ccccc1C(=O)OCCCCCCCCCCC next.
No

What do you get for COC1=CC(=O)C[C@@H](C)[C@]12Oc1c(Cl)c(OC)cc(OC)c1C2=O ?
No

Would you mind doing O=C1CCc2ccccc2O1 as well?
No

Try the compound c1ccoc1
No

###

Test system: CCRIS mutagenicity, Ames/micronucleus/aberration tests
Assay Info: CCRIS mutagenicity studies
Measurement Setup: Test System: AMES SALMONELLA TYPHIMURIUM; Strain/Indicator: TA1538; Metabolic Activation: NONE; Method: STANDARD PLATE
Activity calls are given as the source filed them. How the calls were made is not given here.
Just give me one of these, please: true (1) for active, false (0) for inactive

Would you mind telling me which call this test gave C#C[C@]1(O)CC[C@H]2[C@@H]3CCC4=CC(=O)CC[C@@H]4[C@H]3CC[C@@]21CC ?
false (0)

Please answer likewise for O=C(O)[C@H](O)[C@@H](O)C(=O)O
false (0)

Here is the next compound: CCCCOc1cc(N=Nc2ccccc2)ccc1N=Nc1c(S(=O)(=O)O)cc2ccc(N)cc2c1O
false (0)

Next compound up: CN(C)c1ccc([C@H]2C[C@]3(C)[C@@H](CC[C@]3(O)CCCO)[C@@H]3CCC4=CC(=O)CCC4=C32)cc1
false (0)

Lookup Nc1cc(-c2ccncc2)c[nH]c1=O
false (0)

Request: C=C(C)C(=O)OCC(C)(C)COC(=O)C(=C)C
false (0)

Next compound: O=[N+]([O-])c1ccccc1C(F)(F)F
false (0)

Ok, now c1cscn1
false (0)

Let us now turn to O=C1c2cccc(O)c2C(=O)c2cccc(O)c21
true (1)
